- assay.target: T1, Class I HLA molecule B*0801 in recombinant form (UniProt P01889 25-309, limits assumed)
- T1 MHC heavy: not shown
- protocol.summary: iTopia ELISA-like peptide-HLA binding
# reported Bond results; entries follow

Consider the reported Bond results for these binders:
>>> print(df.to_string())
                                     binder   metric_name  observed_measurement
0  QQYGSSPRT [VK3-20 peptide No 90 QQYGSSPRT]  Bond results                    1%
1  FTLTISRLE [VK3-20 peptide No 72 FTLTISRLE]  Bond results                    6%
2  TQSPGTLSF [VK3-20 peptide No 5 TQSPGTLSF]  Bond results                    2%
3  VSSSYLAWY [VK3-20 peptide No 29 VSSSYLAWY]  Bond results                    1%
4  IVLTQSPGT [VK3-20 peptide No 2 IVLTQSPGT]  Bond results                    2%

Reported Bond results for LIYGASSRA [VK3-20 peptide No 48 LIYGASSRA] : what is it? 3%

Bench note: what Bond results did SYLAWYQQK [VK3-20 peptide No 32 SYLAWYQQK] show? 1%
